ASSAY: in vitro
CONDITIONS_USED: rat, cultured hepatocytes
A collection of compounds and their measured half-life
MEASURE_NAME: half-life (min)

COMPOUND: COc1ccc2c3c1O[C@@H]1C(F)CCC4[C@H](C2)N(C(=O)Cc2ccccc2)CC[C@]341 (some centres unmarked)
MEASURE_NAME: half-life
UNIT_STRING: min
OBS_VALUE: 11.9

COMPOUND: COc1ccc2c3c1O[C@@H]1C(F)CCC4[C@H](C2)N(S(=O)(=O)c2ccccc2)CC[C@]341 (some centres unmarked)
MEASURE_NAME: half-life
UNIT_STRING: min
OBS_VALUE: 12.7

COMPOUND: COc1ccc2c3c1O[C@@H]1C(F)CCC4[C@H](C2)N(C(=O)c2ccccc2)CC[C@]341 (some centres unmarked)
MEASURE_NAME: half-life
UNIT_STRING: min
OBS_VALUE: 11.6

COMPOUND: COc1ccc2c3c1O[C@@H]1C(F)CCC4[C@H](C2)N(C(=O)C2CC2)CC[C@]341 (some centres unmarked)
MEASURE_NAME: half-life
UNIT_STRING: min
OBS_VALUE: 14.4

COMPOUND: COc1ccc2c3c1O[C@@H]1C(F)CCC4[C@H](C2)N(S(C)(=O)=O)CC[C@]341 (some centres unmarked)
MEASURE_NAME: half-life
UNIT_STRING: min
OBS_VALUE: 15.3

COMPOUND: COc1ccc2c3c1O[C@@H]1C(F)CCC4[C@H](C2)N(C(C)Cc2ccccc2)CC[C@]341 (some centres unmarked)
MEASURE_NAME: half-life
UNIT_STRING: min
OBS_VALUE: 12.7

COMPOUND: COc1ccc2c3c1O[C@@H]1C(F)CCC4[C@H](C2)N(C2CC2)CC[C@]341 (some centres unmarked)
MEASURE_NAME: half-life
UNIT_STRING: min
OBS_VALUE: 11.8

COMPOUND: COc1ccc2c3c1O[C@@H]1C(F)CCC4[C@H](C2)N(C(=O)C(C)(C)c2ccccc2)CC[C@]341 (some centres unmarked)
MEASURE_NAME: half-life
UNIT_STRING: min
OBS_VALUE: 11.3
